# Test system: HEK-CMV-Luc2-Hygro cells
# test name: High-throughput genome-wide siRNA screen and validation screen for luciferase expression
# Assay type: cell-based, human
# condition summary: Table 4; primary screen, 72 h, negative control = 100%
measure: Viable cell density (%)

substance	system	result value
188 (GGAAGAACGUCUUGCACAATT; chemistry not given here; listed as Homo sapiens) [compound 188]	HEK-CMV-Luc2-Hygro cells	85.471
204 (CUCCCGCAGUUGAACAUCATT; chemistry not given here; listed as Homo sapiens) [compound 204]	HEK-CMV-Luc2-Hygro cells	109.377
125 (GGAACACUAUGAUGAGUUUTT; chemistry not given here; listed as Homo sapiens) [compound 125]	HEK-CMV-Luc2-Hygro cells	63.672
208 (CUUUUAAUGUUAAACUACATT; chemistry not given here; listed as Homo sapiens) [compound 208]	HEK-CMV-Luc2-Hygro cells	110.986
193 (GGGACACUGUCAACCUCUATT; chemistry not given here; listed as Homo sapiens) [compound 193]	HEK-CMV-Luc2-Hygro cells	74.811
112 (GUUUCAUCUGGGUUCGCUATT; chemistry not given here; listed as Homo sapiens) [compound 112]	HEK-CMV-Luc2-Hygro cells	62.659
192 (GCAUCUGUCCGAUCGCUCUTT; chemistry not given here; listed as Homo sapiens) [compound 192]	HEK-CMV-Luc2-Hygro cells	105.514
98 (CAACGGGACUAUUAUGAUATT; chemistry not given here; listed as Homo sapiens) [compound 98]	HEK-CMV-Luc2-Hygro cells	97.392
147 (GUUUCGACCUCGAUCCAGATT; chemistry not given here; listed as Homo sapiens) [compound 147]	HEK-CMV-Luc2-Hygro cells	61.490
138 (CCCUCCUACUAUUACCCGUTT; chemistry not given here; listed as Homo sapiens) [compound 138]	HEK-CMV-Luc2-Hygro cells	96.869
105 (GCGCAAGCUUAAGAACUUUTT; chemistry not given here; listed as Homo sapiens) [compound 105]	HEK-CMV-Luc2-Hygro cells	94.579
167 (CCUGGACAGUUUGAAGCAATT; chemistry not given here; listed as Homo sapiens) [compound 167]	HEK-CMV-Luc2-Hygro cells	88.009
141 (AGAGGACCCAGAUUGUCUATT; chemistry not given here; listed as Homo sapiens) [compound 141]	HEK-CMV-Luc2-Hygro cells	97.298

* * *

# Tested on: HEK-CMV-Luc2-Hygro cells
# test name: High-throughput genome-wide siRNA screen and validation screen for luciferase expression
# Type: cell-based, human
# condition summary: Table 4; primary screen, 72 h, negative control = 100%

substance	unit spec	per cell luciferase yield (%)
139 (GGAGAUAUGCAAAGCAGAATT; chemistry not given here; listed as Homo sapiens) [compound 139]	%	194.043
199 (CUAACUACCCAGACCCUUATT; chemistry not given here; listed as Homo sapiens) [compound 199]	%	164.639
209 (GAACUUCACAAGUUCCUCATT; chemistry not given here; listed as Homo sapiens) [compound 209]	%	228.634

* * *

# Test system: HEK-CMV-Luc2-Hygro cells
# test name: High-throughput genome-wide siRNA screen and validation screen for luciferase expression
# Format: cell-based, human
# condition summary: Table 6; polyamine pathway gene siRNAs
Reported Per cell luciferase yield (%) by item:

substance	system	Per cell luciferase yield (%)
213 (GGCUGAAUGUAACAGAGGATT; chemistry not given here; listed as Homo sapiens) [compound 213]	HEK-CMV-Luc2-Hygro cells	134.5
156 (GAUUAUCCUUGUACUUUGATT; chemistry not given here; listed as Homo sapiens) [compound 156]	HEK-CMV-Luc2-Hygro cells	141.8
222 (GACUUUCACUUCCGCCUUATT; chemistry not given here; listed as Homo sapiens) [compound 222]	HEK-CMV-Luc2-Hygro cells	84.7
223 (GAUGACUUUUGAUAGUGAATT; chemistry not given here; listed as Homo sapiens) [compound 223]	HEK-CMV-Luc2-Hygro cells	32.1
215 (GCUAACUUAUUCUACUCCGTT; chemistry not given here; listed as Homo sapiens) [compound 215]	HEK-CMV-Luc2-Hygro cells	154.7
155 (GCCUUGCUCCGAACCUUCATT; chemistry not given here; listed as Homo sapiens) [compound 155]	HEK-CMV-Luc2-Hygro cells	169.9

* * *

# Test system: T-REx-293-NTSR1-GFP cells
# test name: High-throughput human miRNA mimic library screen, image-based per cell green fluorescence (NTSR1-GFP expression)
# condition summary: per cell green fluorescence intensity; 72 h after transfection plus 24 h tetracycline induction
Reported MAD-based z-score by item:
measure: MAD-based z-score

sequence	system	result value
CAUCCCUUGCAUGGUGGAGGG (listed as RNA, chemistry not given here; listed as Homo sapiens) [miR-188-5p, human miRNA mimic]	T-REx-293-NTSR1-GFP cells	2.9
CUGCCAAUUCCAUAGGUCACAG (listed as RNA, chemistry not given here; listed as Homo sapiens) [miR-192-3p, human miRNA mimic]	T-REx-293-NTSR1-GFP cells	2.0
UAAGGUGCAUCUAGUGCAGAUAG (listed as RNA, chemistry not given here; listed as Homo sapiens) [miR-18a-5p, human miRNA mimic]	T-REx-293-NTSR1-GFP cells	2.0
CACUGGCUCCUUUCUGGGUAGA (listed as RNA, chemistry not given here; listed as Homo sapiens) [miR-892b, human miRNA mimic]	T-REx-293-NTSR1-GFP cells	3.7
UUGGGGAAACGGCCGCUGAGUG [miR-2110]	T-REx-293-NTSR1-GFP cells	2.3
GCUACUUCACAACACCAGGGCC (listed as RNA, chemistry not given here; listed as Homo sapiens) [miR-138-1-3p, human miRNA mimic]	T-REx-293-NTSR1-GFP cells	2.5
AAACCUGUGUUGUUCAAGAGUC (listed as RNA, chemistry not given here; listed as Homo sapiens) [miR-649, human miRNA mimic]	T-REx-293-NTSR1-GFP cells	2.0
CUUUUUGCGGUCUGGGCUUGC (listed as RNA, chemistry not given here; listed as Homo sapiens) [miR-129-5p, human miRNA mimic]	T-REx-293-NTSR1-GFP cells	2.7
CUGUGCGUGUGACAGCGGCUGA [miR-210-3p]	T-REx-293-NTSR1-GFP cells	3.2

* * *

# System: HEK-CMV-Luc2-Hygro cells
# test name: High-throughput genome-wide siRNA screen and validation screen for luciferase expression
# Assay type: cell-based, human
# condition summary: Table 4; primary screen, 72 h, negative control = 100%

substance	Viable cell density (%)
206 (GCUCCUCUGUUACCACAGATT; chemistry not given here; listed as Homo sapiens) [compound 206]	91.526
207 (CGCUCACCAACAGCAGAAATT; chemistry not given here; listed as Homo sapiens) [compound 207]	102.629
174 (GCAAUGCUUGCAAAACUCATT; chemistry not given here; listed as Homo sapiens) [compound 174]	90.976
166 (CCAAGUCCAAUGCACCUGUTT; chemistry not given here; listed as Homo sapiens) [compound 166]	76.798
150 (CGCUUUAACUGGAAGCUCUTT; chemistry not given here; listed as Homo sapiens) [compound 150]	103.662
146 (GACCUAUACUCAUUCUGCATT; chemistry not given here; listed as Homo sapiens) [compound 146]	83.351

* * *

# Test system: HEK-CMV-Luc2-Hygro cells
# test name: High-throughput genome-wide siRNA screen and validation screen for luciferase expression
# Assay type: cell-based, human
# condition summary: Table 3; per cell luciferase yield relative to negative control, primary screen, 72 h

substance	per_cell
61 (GGACGGAAGCGAAAAUCGATT; chemistry not given here; listed as Homo sapiens) [compound 61]	216.2
70 (GAUUAUCCUUGUACUUUGATT; chemistry not given here; listed as Homo sapiens) [compound 70]	141.8
78 (CGGAAUCAAUGAUCCUGUATT; chemistry not given here; listed as Homo sapiens) [compound 78]	212.7
86 (CAUUGGUUUUGAUGAGUAUTT; chemistry not given here; listed as Homo sapiens) [compound 86]	226.7
85 (CUGCCGCAACAAUAAGAAATT; chemistry not given here; listed as Homo sapiens) [compound 85]	171.2
91 (CAGCAAACCUUUGACCAGATT; chemistry not given here; listed as Homo sapiens) [compound 91]	277.5
47 (GUACCUGCGGGAUUACUCATT; chemistry not given here; listed as Homo sapiens) [compound 47]	160.7
67 (GGAUGACGAGCUGAACUUUTT; chemistry not given here; listed as Homo sapiens) [compound 67]	140.1
41 (CAACAGUACUUACCGAUGUTT; chemistry not given here; listed as Homo sapiens) [compound 41]	141.8
73 (GUCCGAGUGUGGUUCUGUATT; chemistry not given here; listed as Homo sapiens) [compound 73]	180.4
72 (GCUCCUCUGUUACCACAGATT; chemistry not given here; listed as Homo sapiens) [compound 72]	179.3
44 (CAACAGAUCAGAGAACAAATT; chemistry not given here; listed as Homo sapiens) [compound 44]	156.4
81 (GUUUCAUCUGGGUUCGCUATT; chemistry not given here; listed as Homo sapiens) [compound 81]	233.6
45 (GGAUAUUGGAGGCUAGUCATT; chemistry not given here; listed as Homo sapiens) [compound 45]	157.9
46 (CUCUUAUGGUAACCAAUGATT; chemistry not given here; listed as Homo sapiens) [compound 46]	160.2
